The following compounds are listed with their measured C: number of panels, acid taste/acid smell slightly unpleasant values.
Experiment notes: Sensory evaluation of Vermont drink containing the agent
Recorded conditions: 1 ppt, ten panels
Reported endpoint: C: number of panels, acid taste/acid smell slightly unpleasant

> print(dat)
                                   compound  measurement
1  CCCCC/C=C/C/C=C\C=C\C=O [(E,Z,E)-2,4,7-tridecatrienal]            3
2  CCCCC/C=C/C/C=C/C=C/C=O [(E,E,E)-2,4,7-tridecatrienal]            3
3  CCCCC/C=C\C/C=C\C=C\C=O [(E,Z,Z)-2,4,7-tridecatrienal]            2
4  CCCCC/C=C\C/C=C/C=C/C=O [(E,E,Z)-2,4,7-tridecatrienal]            4
5  CCCCC/C=C\C/C=C\CCC=O [(Z,Z)-4,7-tridecadienal]            3

* * *

The following molecules are listed with their measured N: number of panels, irritation of acid reduced to give a mild acid taste values.
Experiment notes: Sensory evaluation of Vermont drink containing the agent
Recorded conditions: 0.02 ppt, ten panels
Reported endpoint: N: number of panels, irritation of acid reduced to give a mild acid taste

> print(dat)
                                   molecule  measurement
1  CCCCC/C=C\C/C=C\CCC=O [(Z,Z)-4,7-tridecadienal]            0
2  CCCCC/C=C\C/C=C/CCC=O [(E,Z)-4,7-tridecadienal]            0
3  CCCCC/C=C\C/C=C\C=C\C=O [(E,Z,Z)-2,4,7-tridecatrienal]            0
